// data source = patent US4948782A

Test system: Staphylococcus aureus FDA 209P
assay details: MIC, Staphylococcus aureus FDA 209P (SA(2))
Format: cell-based
measurement context: Staphylococcus aureus, FDA209P, Staphylococcus aureus FDA 209P; read-out: MIC SA (2)
readout type: MIC

CCCCN(C)C1CC(C)OC(OC2C(C)C(OC3CC(C)(OC)C(O)C(C)O3)C(C)C(=O)OC(CC)C(C)(O)C(O)C(C)C3=C(C)CC2(C)O3)C1O (stereo not shown)    > 100 µg/mL
CC[C@H]1OC(=O)[C@H](C)[C@@H](O[C@H]2C[C@@](C)(OC)[C@@H](O)[C@H](C)O2)[C@H](C)[C@@H](O[C@@H]2O[C@H](C)C[C@H]([N+](C)(C)Cc3ccccc3)[C@H]2O)[C@@]2(C)CC(C)C3(O[C@@]1(C)[C@H](O)[C@H]3C)O2 (stereo partly shown)    > 100 µg/mL
CCC1OC(=O)C(C)C(OC2CC(C)(OC)C(O)C(C)O2)C(C)C(OC2OC(C)CC(N(C)CCO)C2O)C2(C)CC(C)=C(O2)C(C)C(O)C1(C)O (stereo not shown)    > 100 µg/mL
CCC1OC(=O)C(C)C(OC2CC(C)(OC)C(O)C(C)O2)C(C)C(OC2OC(C)CC(NC)C2O)C2(C)CC(C)=C(O2)C(C)C(O)C1(C)O (stereo not shown)    > 100 µg/mL
C=CC[N+](C)(C)[C@H]1C[C@@H](C)O[C@@H](O[C@@H]2[C@@H](C)[C@H](O[C@H]3C[C@@](C)(OC)[C@@H](O)[C@H](C)O3)[C@@H](C)C(=O)O[C@H](CC)[C@@](C)(O)[C@H](O)[C@@H](C)C3O[C@]2(C)CC3C)[C@@H]1O (stereo partly shown)    100 µg/mL

Kindly give each listed record's MIC.
1. C=CCN(C)C1CC(C)OC(OC2C(C)C(OC3CC(C)(OC)C(O)C(C)O3)C(C)C(=O)OC(CC)C(C)(O)C(O)C(C)C3=C(C)CC2(C)O3)C1O (stereo not shown)
2. CC[C@H]1OC(=O)[C@H](C)[C@@H](O[C@H]2C[C@@](C)(OC)[C@@H](O)[C@H](C)O2)[C@H](C)[C@@H](O[C@@H]2O[C@H](C)C[C@H]([N+](C)(C)CC)[C@H]2O)[C@@]2(C)CC(C)=C(O2)[C@H](C)[C@@H](O)C1C (stereo partly shown)
3. CCC1OC(=O)C(C)C(OC2CC(C)(OC)C(O)C(C)O2)C(C)C(OC2OC(C)CC(NC)C2O)C2(C)CC(C)=C(O2)C(C)C(OC(C)=O)C1(C)OC(C)=O (stereo not shown)
4. CCC1OC(=O)C(C)C(OC2CC(C)(OC)C(O)C(C)O2)C(C)C(OC2OC(C)CC([N+]3(CC)CCCC3)C2O)C2(C)CC(C)=C(O2)C(C)C(O)C1(C)O (stereo not shown)
5. CC[C@H]1OC(=O)[C@H](C)[C@@H](O[C@H]2C[C@@](C)(OC)[C@@H](O)[C@H](C)O2)[C@H](C)[C@@H](O[C@@H]2O[C@H](C)C[C@H](N(C)C)[C@H]2O)[C@@]2(C)CC(C)C(O2)[C@H](C)[C@@H](O)[C@]1(C)O (stereo partly shown) [*1, reference compound]

["> 100 µg/mL", "100 µg/mL", "> 100 µg/mL", "> 100 µg/mL", "12.5 µg/mL"]

Kindly give each listed record's MIC.
1. CCC1OC(=O)C(C)C(OC2CC(C)(OC)C(O)C(C)O2)C(C)C(OC2OC(C)CC([N+](C)(C)CC(=O)O)C2O)C2(C)CC(C)=C(O2)C(C)C(O)C1(C)O (stereo not shown)
2. C#CC[N+](C)(C)C1CC(C)OC(OC2C(C)C(OC3CC(C)(OC)C(O)C(C)O3)C(C)C(=O)OC(CC)C(C)(OC(C)=O)C(OC(C)=O)C(C)C3=C(C)CC2(C)O3)C1O (stereo not shown)

1. > 100 µg/mL
2. 50 µg/mL

Kindly give each listed record's MIC.
1. CCC1OC(=O)C(C)C(OC2CC(C)(OC)C(O)C(C)O2)C(C)C(OC2OC(C)CC([N+](C)(C)CC)C2O)C2(C)CC(C)=C(O2)C(C)C(OS(C)(=O)=O)C1(C)O (stereo not shown)
2. CCC[N+](C)(C)C1CC(C)OC(OC2C(C)C(OC3CC(C)(OC)C(O)C(C)O3)C(C)C(=O)OC(CC)C(C)(O)C(O)C(C)C3=C(C)CC2(C)O3)C1O (stereo not shown)
3. C#CC[N+](C)(C)C1CC(C)OC(OC2C(C)C(OC3CC(C)(OC)C(O)C(C)O3)C(C)C(=O)OC(CC)C3(C)OB(c4ccccc4)OC3C(C)C3=C(C)CC2(C)O3)C1O (stereo not shown)

1: > 100 µg/mL; 2: > 100 µg/mL; 3: 100 µg/mL

Kindly give each listed record's MIC.
1. CCC1OC(=O)C(C)C(OC2CC(C)(OC)C(O)C(C)O2)C(C)C(OC2OC(C)CC([N+](C)(C)CC#N)C2O)C2(C)CC(C)=C(O2)C(C)C(O)C1(C)O (stereo not shown)
2. C#CC[N+](C)(C)[C@H]1C[C@@H](C)O[C@@H](O[C@@H]2[C@@H](C)[C@H](O[C@H]3C[C@@](C)(OC)[C@@H](O)[C@H](C)O3)[C@@H](C)C(=O)O[C@H](CC)[C@@](C)(O)[C@H](O)[C@@H](C)C(=O)[C@H](C)C[C@@]2(C)O)[C@@H]1O
3. CCC1OC(=O)C(C)C(OC2CC(C)(OC)C(O)C(C)O2)C(C)C(OC2OC(C)CC([N+]3(CC)CCCCC3)C2O)C2(C)CC(C)=C(O2)C(C)C(O)C1(C)O (stereo not shown)
4. CCC1OC(=O)C(C)C(OC2CC(C)(OC)C(O)C(C)O2)C(C)C(OC2OC(C)CC(N)C2O)C2(C)CC(C)=C(O2)C(C)C(O)C1(C)O (stereo not shown)

1: > 100 µg/mL; 2: 25 µg/mL; 3: > 100 µg/mL; 4: > 100 µg/mL
